Target: Potassium-transporting ATPase (Rattus norvegicus) (UniProt P09626+P18598)
Experiment: Inhibition of pentagastrin stimulated gastric acid secretion in anesthetized rat at 10 uM/kg
Format: functional
Conditions: Stomach; 10 umol/kg
Measured Endpoint: inhibition (%)

Use these answered entries as a reference point.
Structure: COc1cccc2c(Nc3ccccc3C)nc(NCc3nccs3)nc12
inhibition (%): 33
--
Structure: COc1cccc2c(Nc3ccccc3C)nc(N(C)C)nc12
inhibition (%): 37
--
Structure: COc1cccc2c(N(C)c3ccccc3)nc(N)nc12
inhibition (%): 13

I = Cc1ccccc1Nc1nc(N(C)c2ccccc2C)nc2ccccc12
II = COc1ccc(N(C)c2nc(Nc3ccccc3C)nc3ccccc23)cc1
III = Cc1ccccc1Nc1nc(N2CCCC2)nc2ccccc12
IV = Cc1ccccc1Nc1nc(N(C)c2ccccc2C)c2ccccc2n1
Rank ascending by inhibition. Give the order by naming the labels one after another as requested.
III, I, II, IV
(III: 17%, I: 27%, II: 60%, IV: 90%)

* * *

Target: Potassium-transporting ATPase (Sus scrofa, UniProt P19156)
Sequence (P18434 whole entry): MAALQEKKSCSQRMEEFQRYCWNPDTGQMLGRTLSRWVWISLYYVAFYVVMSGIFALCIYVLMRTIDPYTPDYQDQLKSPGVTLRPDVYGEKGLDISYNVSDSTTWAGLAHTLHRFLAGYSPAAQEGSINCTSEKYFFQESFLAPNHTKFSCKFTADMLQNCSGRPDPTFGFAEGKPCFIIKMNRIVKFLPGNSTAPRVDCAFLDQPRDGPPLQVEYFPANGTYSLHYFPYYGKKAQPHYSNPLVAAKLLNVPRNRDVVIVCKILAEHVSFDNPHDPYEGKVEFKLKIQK
Sequence (P19156 whole entry): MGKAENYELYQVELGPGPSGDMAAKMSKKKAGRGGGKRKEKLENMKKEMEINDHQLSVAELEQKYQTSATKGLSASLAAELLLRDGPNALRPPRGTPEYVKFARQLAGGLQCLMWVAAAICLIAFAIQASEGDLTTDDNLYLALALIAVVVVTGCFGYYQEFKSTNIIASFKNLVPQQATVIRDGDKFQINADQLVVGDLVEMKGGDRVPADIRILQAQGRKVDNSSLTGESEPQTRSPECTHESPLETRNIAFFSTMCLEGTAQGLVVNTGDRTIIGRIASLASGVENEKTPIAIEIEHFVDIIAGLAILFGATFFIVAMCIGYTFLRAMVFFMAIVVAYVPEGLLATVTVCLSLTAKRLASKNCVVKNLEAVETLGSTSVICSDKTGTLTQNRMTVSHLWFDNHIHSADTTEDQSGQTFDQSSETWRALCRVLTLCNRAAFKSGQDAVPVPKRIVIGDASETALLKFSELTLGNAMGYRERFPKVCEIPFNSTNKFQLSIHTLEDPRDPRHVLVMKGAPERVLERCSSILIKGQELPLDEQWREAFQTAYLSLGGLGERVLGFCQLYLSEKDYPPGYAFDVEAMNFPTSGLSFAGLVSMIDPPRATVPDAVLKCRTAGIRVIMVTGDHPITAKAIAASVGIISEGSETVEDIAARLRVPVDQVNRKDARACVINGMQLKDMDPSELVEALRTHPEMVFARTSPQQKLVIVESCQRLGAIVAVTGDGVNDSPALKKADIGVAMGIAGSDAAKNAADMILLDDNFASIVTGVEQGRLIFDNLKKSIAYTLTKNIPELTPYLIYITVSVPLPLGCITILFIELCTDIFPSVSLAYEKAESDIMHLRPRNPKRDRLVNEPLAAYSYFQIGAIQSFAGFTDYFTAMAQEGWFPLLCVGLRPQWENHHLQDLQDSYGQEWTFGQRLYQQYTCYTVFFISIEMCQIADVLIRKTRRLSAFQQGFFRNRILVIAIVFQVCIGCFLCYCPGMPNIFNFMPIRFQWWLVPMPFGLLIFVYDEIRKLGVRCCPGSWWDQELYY
Test: Inhibition of K+ stimulated gastric ATPase activity
Measured Endpoint: IC50 (nM)

Solved cases below.
Structure: Cc1ccccc1Nc1nc(Nc2ccccc2C)c2ccccc2n1
Subject Of Test: Potassium-transporting ATPase (Sus scrofa, UniProt P19156)
IC50, nM: 600

Structure: CN(c1ccccc1)c1nc(N(C)c2ccccc2)c2ccsc2n1
Subject Of Test: Potassium-transporting ATPase (Sus scrofa, UniProt P19156)
IC50, nM: 1300

Structure: Cc1ccccc1Nc1nc(N(C)c2ccccc2)c2cccc(OCCO)c2n1
Subject Of Test: Potassium-transporting ATPase (Sus scrofa, UniProt P19156)
IC50, nM: 35

Structure: COc1cccc2c(Nc3ccccc3C)nc(N3CCCC3)nc12
Subject Of Test: Potassium-transporting ATPase (Sus scrofa, UniProt P19156)
IC50, nM: 30000

Structure: Cc1ccccc1Nc1nc(N(C)c2ccc(F)cc2)c2ccccc2n1
Subject Of Test: Potassium-transporting ATPase (Sus scrofa, UniProt P19156)
IC50, nM: 120

Structure: COc1cccc2c(Nc3ccccc3C)nc(NCc3ccccc3)nc12
Subject Of Test: Potassium-transporting ATPase (Sus scrofa, UniProt P19156)
IC50, nM: 2000

A = COc1cccc2c(N(C)c3ccccc3C)nc(Nc3ccccc3C)nc12
B = Cc1cc(F)ccc1Nc1nc(N(C)c2ccccc2)c2cccc(OCCCN(C)C)c2n1
C = COc1cccc2c(Nc3ccccc3C)nc(NCc3ccco3)nc12
Arrange by IC50, high to low. Return the labels ranked in the requested order, please.
C, A, B
(C: 1900 nM, A: 100 nM, B: 36 nM)

I = Cc1ccccc1Nc1nc(N(C)c2ccccc2)c2sccc2n1
II = COc1ccc(N(C)c2nc(Nc3ccccc3C)nc3ccccc23)cc1
Kindly identify which of I and II has the larger recorded IC50 value. Write down the label of the entry you select.
II
(II: 34 nM, I: 19 nM)

* * *

Biological target: Potassium-transporting ATPase (Sus scrofa)
Experiment: Inhibition of K+ stimulated gastric ATPase activity
pIC50: −log10 of the molar value.
Measured Endpoint: pIC50

Structure: Cc1ccccc1Nc1nc(NCc2ccccc2)nc2ccccc12
Subject Of Test: Potassium-transporting ATPase (Sus scrofa)
Measured Number: 6.29

Structure: COc1cccc2c(Nc3ccccc3C)nc(N(C)C)nc12
Subject Of Test: Potassium-transporting ATPase (Sus scrofa)
Measured Number: 4.80

Structure: COc1ccc(Nc2nc(N(C)c3ccccc3)c3sccc3n2)c(C)c1
Subject Of Test: Potassium-transporting ATPase (Sus scrofa)
Measured Number: 6.47

P = Cc1ccccc1Nc1nc(N(C)c2ccccc2)c2cccc(OCCCN(C)C)c2n1
Q = Cc1cc(F)ccc1Nc1nc(N(C)c2ccccc2)c2cccc(OCCCN3CCOCC3)c2n1
R = CN(c1ccccc1)c1nc(N(C)c2ccccc2)c2sccc2n1
Please produce an ascending ranking of these molecules based on pIC50. Note for the reader: the ranking is given by listing the labels in the order requested.
R, Q, P
(R: 6.52, Q: 7.30, P: 7.68)
